# Test system: NF-κ B
# assay-overview: Inhibitory activity of NF-κ B activation, luciferase reporter assay in HepG2 under TNF-α stimulation
# Assay type: cell-based, human
# test-conditions: 10 μg/mL; HepG2, TNF-α (40 ng/ml), 4 hours
Hi there, I'd appreciate the recorded Inhibitory Ratio of NF-κ B Activation(%) Drug Concentration 10 μg/mL for every entry that follows.
One number for each entry, in %.

In the examples that follow, each entry is paired with its recorded Inhibitory Ratio of NF-κ B Activation(%) Drug Concentration 10 μg/mL.
[
  {
    "molecule": "O=C(Nc1cc(C(F)(F)F)cc(C(F)(F)F)c1)c1c(O)cccc1F [Compound No. 63]",
    "unit-descriptor": "%",
    "measured-result": 85.0
  },
  {
    "molecule": "COc1ccc(C(C)(C)C)cc1NC(=O)c1cc(Cl)ccc1OC(C)=O [Compound No. 136]",
    "unit-descriptor": "%",
    "measured-result": 99.4
  }
]

Alright, here's another molecule for you.
# Inhibitory Ratio of NF-κ B Activation(%) Drug Concentration 10 μg/mL lookup, item O=C(Nc1cc(C(F)(F)F)cc(C(F)(F)F)c1)c1ccc2ccccc2c1O [Compound No. 71]
95.0
